Entry source: patent US20240189443A1

assay target: T1, human PD-L1 on cell strain HEK293T/hPD-L1 (human, UniProt Q9NZQ7 19-290)
T1 construct: whole, on cells
T1 sequence (Q9NZQ7 19-290): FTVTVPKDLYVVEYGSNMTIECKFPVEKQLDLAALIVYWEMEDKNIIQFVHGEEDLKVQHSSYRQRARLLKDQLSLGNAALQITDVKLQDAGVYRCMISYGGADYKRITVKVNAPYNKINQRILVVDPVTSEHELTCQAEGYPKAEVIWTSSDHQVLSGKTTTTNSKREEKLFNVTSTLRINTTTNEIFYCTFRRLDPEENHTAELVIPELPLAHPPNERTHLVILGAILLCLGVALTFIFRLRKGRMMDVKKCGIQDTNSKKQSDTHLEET
measurement notes: flow cytometry on HEK293T/hPD-L1, 10 µg/mL, anti-human IgG Fc (FITC)
Source text: […]
endpoint name: binding result

anti-human PD-L1 nanobody h_Nb5 (Fc fusion, not shown: Fc of human IgG1 from vector pFUSE-hIgG1-Fc) DVQLQESGGGAVQSGESLRLSCAASGRDLMFYDVAWFRQAPGKEREGVSYIRSSGTLTKYADSVKGRFTISRDNDKNTVSLQMNSLNPEDTAKYYCAARLQSATSHSDLREDEFNSWGQGTQVTVSS ... binds
anti-human PD-L1 nanobody h_Nb6 (Fc fusion, not shown: Fc of human IgG1 from vector pFUSE-hIgG1-Fc) DVQLQESGGGLAQPGGSLRLSCAASGFTFSSYAMSWARQAPGKGLEWVAGIYRGGSDTYYADSVKGRFTISRDNTKNTLYLQMNSLKPEDTALYYCIQGWGLGYANYDYWGQGTQVTVSS ... binds
